target: GAR formyltransferase (Lactobacillus casei)
method: Inhibition of the GAR formyl transferase in lactobacillus casei
readout.label: IC50

In: Query (molecule): CC(Cc1ccc(C(=O)NC(CCC(=O)O)C(=O)O)cc1)Cc1cnc2nc(N)[nH]c(=O)c2n1 (stereo unspecified) ; field requested: IC50
Out: > 20 µM
